Reported Dmax values follow for various molecules
- target_desc: ER (Homo sapiens (Human), UniProt P03372)
- Sequence (P03372 whole entry): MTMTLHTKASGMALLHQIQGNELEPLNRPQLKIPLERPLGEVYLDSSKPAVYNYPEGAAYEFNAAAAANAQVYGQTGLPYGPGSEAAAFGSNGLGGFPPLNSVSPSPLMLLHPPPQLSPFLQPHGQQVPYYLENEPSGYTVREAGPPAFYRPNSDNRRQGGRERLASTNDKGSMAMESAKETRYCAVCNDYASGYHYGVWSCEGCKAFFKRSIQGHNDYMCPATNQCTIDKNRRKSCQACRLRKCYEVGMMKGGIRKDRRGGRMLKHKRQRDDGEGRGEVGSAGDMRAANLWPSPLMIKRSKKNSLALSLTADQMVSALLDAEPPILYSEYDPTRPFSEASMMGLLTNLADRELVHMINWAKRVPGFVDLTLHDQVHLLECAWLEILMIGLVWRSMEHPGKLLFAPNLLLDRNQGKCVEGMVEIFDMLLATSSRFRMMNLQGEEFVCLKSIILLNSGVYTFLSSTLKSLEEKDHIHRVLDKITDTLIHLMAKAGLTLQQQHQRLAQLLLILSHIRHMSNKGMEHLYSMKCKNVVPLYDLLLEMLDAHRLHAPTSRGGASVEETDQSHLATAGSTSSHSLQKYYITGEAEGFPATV
- procedure_text: In-cell western (ICW) ER degradation assay in MCF-7 cells
- Type: cell-based
- experimental_context: MCF7, maximal ER degradation, MCF7, 16 hrs
property_name: Dmax

molecule="O=C1CCC(NC(=O)c2ccc(N3CCN(CC4CC5(CCN(c6ccc([C@@H]7c8ccc(O)cc8OC[C@@H]7c7ccccc7)cc6)CC5)C4)CC3)cn2)C(=O)N1 (stereo partly drawn)" property_name=Dmax value_measured="50 to 75%"
molecule="O=C1CC[C@H](N2Cc3c(ccc4c3OC[C@H]3CN(CC5CC6(CCN(c7ccc([C@H]8c9ccc(O)cc9OC[C@H]8c8ccccc8)cc7)CC6)C5)CCN43)C2=O)C(=O)N1 (single isomer, unassigned)" property_name=Dmax value_measured="50 to 75%"
molecule="O=C1CCC(N2C(=O)c3cc4c(cc3C2=O)CN(CC(=O)N2CCC3(CC2)CCN(c2ccc([C@@H]5c6ccc(O)cc6OC[C@@H]5c5ccccc5)cc2)CC3)C4)C(=O)N1 (single isomer, unassigned)" property_name=Dmax value_measured="25 to 50%"
molecule="COc1cc(N2CCC(CN3CCC(c4ccc(N[C@H]5CCC(=O)NC5=O)cc4)CC3)CC2)ccc1[C@@H]1c2ccc(O)cc2OC[C@@H]1c1ccccc1 (stereo in doubt)" property_name=Dmax value_measured="50 to 75%"
molecule="O=C1CCC(NC(=O)c2ccc3c(n2)OC[C@H]2CN(CC4CCN(c5ccc([C@@H]6c7ccc(O)cc7OC[C@@H]6c6ccccc6)cc5F)CC4)CCN32)C(=O)N1 (single isomer, unassigned)" property_name=Dmax value_measured="≥ 75%"
molecule="O=C1CCC(N2C(=O)c3cc4c(cc3C2=O)CN(CC(=O)N2CCC3(CC2)CCN(c2ccc([C@H]5c6ccc(O)cc6OC[C@H]5c5ccccc5)cc2)CC3)C4)C(=O)N1 (stereo partly drawn)" property_name=Dmax value_measured="50 to 75%"
molecule="O=C1CCC(N2Cc3cc4c(cc3C2=O)CN(C(=O)C2CCN(C3CCN(c5ccc([C@@H]6c7ccc(O)cc7OC[C@@H]6c6ccccc6)cc5)CC3)CC2)C4)C(=O)N1 (single isomer, unassigned)" property_name=Dmax value_measured="≥ 75%"
molecule=O=C1CC[C@@H](N2Cc3cc4c(cc3C2=O)OC[C@@H]2CN(C[C@@H]3COC5(CCN(c6ccc([C@H]7c8ccc(O)cc8OC[C@H]7c7ccccc7)cc6)CC5)C3)CCN42)C(=O)N1 property_name=Dmax value_measured="50 to 75%"
molecule="O=C1CC[C@@H](N2Cc3c(ccc4c3OC[C@H]3CN(CC5CC6(CCN(c7ccc([C@@H]8c9ccc(O)cc9OC[C@@H]8c8ccccc8)cc7)CC6)C5)CCN43)C2=O)C(=O)N1 (single isomer, unassigned)" property_name=Dmax value_measured="≥ 75%"

* * *

Reported Dmax values follow for various compounds
- target_desc: UniProt P03372
- procedure_text: In-cell western (ICW) ER degradation assay in MCF-7 cells
- Type: cell-based
- experimental_context: MCF7, maximal ER degradation, MCF7, 16 hrs
Structures can show the parent of a compound that is named as a salt.
property_name: Dmax

compound="O=C1CCC(N2Cc3c(ccc4c3OCC43CCN(CC4COC5(CCN(c6ccc([C@H]7c8ccc(O)cc8OC[C@H]7c7ccccc7)cc6)CC5)C4)CC3)C2=O)C(=O)N1 (stereo partly drawn)" target_desc="UniProt P03372" property_name=Dmax value_measured="50 to 75%"
compound="COc1cc(N2CCC(CN3CCN4c5ccc6c(c5OC[C@@H]4C3)CN([C@@H]3CCC(=O)NC3=O)C6=O)CC2)ccc1[C@H]1c2ccc(O)cc2OC[C@H]1c1ccccc1 (single isomer, unassigned)" target_desc="UniProt P03372" property_name=Dmax value_measured="≥ 75%"
compound="O=C1CCC(Nc2ccc3c(c2)OC[C@H]2CN(CC4CCN(c5ccc([C@@H]6c7ccc(O)cc7OC[C@@H]6c6ccccc6)cc5)CC4)CCN32)C(=O)N1 (single isomer, unassigned) [Compound A91, hydrochloride]" target_desc="UniProt P03372" property_name=Dmax value_measured="50 to 75%"
compound="O=C1CCC(N2Cc3cc4c(cc3C2=O)OCC42CCN(CC3CC4(CCN(c5ccc([C@@H]6c7ccc(O)cc7OC[C@@H]6c6ccccc6)cc5)CC4)C3)CC2)C(=O)N1 (stereo partly drawn)" target_desc="UniProt P03372" property_name=Dmax value_measured="50 to 75%"
compound="O=C1CC[C@@H](N2Cc3cc4c(cc3C2=O)OC[C@H]2CN(CC3CCC5(CC3)CN(c3ccc([C@H]6c7ccc(O)cc7OC[C@H]6c6ccccc6)cc3)C5)CCN42)C(=O)N1 (single isomer, unassigned)" target_desc="UniProt P03372" property_name=Dmax value_measured="≥ 75%"
compound="COc1cc(N2CCC(CN3CCN4c5cc6c(cc5OC[C@H]4C3)C(=O)N(C3CCC(=O)NC3=O)C6)CC2)ccc1[C@@H]1c2ccc(O)cc2OC[C@@H]1c1ccccc1 (single isomer, unassigned)" target_desc="UniProt P03372" property_name=Dmax value_measured="50 to 75%"
compound="O=C1CCC(N2Cc3c(ccc4c3OCC43CCN(CC4CCC5(CC4)CN(c4ccc([C@@H]6c7ccc(O)cc7OC[C@@H]6c6ccccc6)cc4)C5)CC3)C2=O)C(=O)N1 (stereo partly drawn)" target_desc="UniProt P03372" property_name=Dmax value_measured="≥ 75%"
compound="COc1cc(N2CCC(CN3CCN(c4ccc(C(=O)NC5CCC(=O)NC5=O)nc4)CC3)CC2)ccc1[C@H]1c2ccc(O)cc2OC[C@H]1c1ccccc1 (single isomer, unassigned)" target_desc="UniProt P03372" property_name=Dmax value_measured="50 to 75%"
compound="COc1cc(N2CCC(CN3CCN4c5ccc(C(=O)NC6CCC(=O)NC6=O)nc5OC[C@H]4C3)CC2)ccc1C1c2ccc(O)cc2OCC1c1ccccc1 (stereo in doubt)" target_desc="UniProt P03372" property_name=Dmax value_measured="≥ 75%"
compound="O=C1CCC(N2Cc3cc4c(cc3C2=O)OC[C@@H]2CN(CC3CCN(c5ccc([C@@H]6c7ccc(O)cc7OC[C@@H]6c6ccccc6)cc5)CC3)CCN42)C(=O)N1 (single isomer, unassigned)" target_desc="UniProt P03372" property_name=Dmax value_measured="50 to 75%"
compound="O=C1CCN(c2ccc(N3CCC4(CC3)CC(CN3CCN(c5ccc([C@H]6c7ccc(O)cc7OC[C@H]6c6ccccc6)cc5)CC3)C4)cc2)C(=O)N1 (single isomer, unassigned)" target_desc="UniProt P03372" property_name=Dmax value_measured="25 to 50%"
compound="COc1nc(C(=O)NC2CCC(=O)NC2=O)ccc1N1CCN(CC2CCC3(CC2)CN(c2ccc([C@@H]4c5ccc(O)cc5OC[C@@H]4c4ccccc4)cc2)C3)CC1 (single isomer, unassigned)" target_desc="UniProt P03372" property_name=Dmax value_measured="50 to 75%"

* * *

- target_desc: ER (Homo sapiens (Human), UniProt P03372)
- procedure_text: In-cell western (ICW) ER degradation assay in MCF-7 cells
- Format: cell-based
- experimental_context: MCF7, maximal ER degradation, MCF7, 16 hrs
Reported Dmax values follow for various compounds
property_name: Dmax

compound="COc1cc(C(=O)N[C@@H]2CCC(=O)NC2=O)ncc1N1CCN(CC2CCC3(CC2)CN(c2ccc([C@H]4c5ccc(O)cc5OC[C@H]4c4ccccc4)cc2)C3)CC1 (single isomer, unassigned)" target_desc="ER (Homo sapiens (Human), UniProt P03372)" value_measured="25 to 50%"
compound="O=C1CC[C@@H](N2Cc3cc4c(cc3C2=O)CN(C(=O)CN2CCC3(CC2)CCN(c2ccc([C@H]5c6ccc(O)cc6OC[C@H]5c5ccccc5)cc2)CC3)C4)C(=O)N1 (single isomer, unassigned)" target_desc="ER (Homo sapiens (Human), UniProt P03372)" value_measured="50 to 75%"
compound="COc1cc(N2CCC(CN3CCN4c5cc6c(cc5OC[C@H]4C3)C(=O)N([C@@H]3CCC(=O)NC3=O)C6)CC2)ccc1[C@H]1c2ccc(O)cc2OC[C@H]1c1ccccc1 (single isomer, unassigned)" target_desc="ER (Homo sapiens (Human), UniProt P03372)" value_measured="≥ 75%"
compound="O=C1CCC(N2Cc3cc4c(cc3C2=O)OCC42CCN(CC3CC4(CCN(c5ccc([C@H]6c7ccc(O)cc7OC[C@H]6c6ccccc6)cn5)CC4)C3)CC2)C(=O)N1 (stereo partly drawn)" target_desc="ER (Homo sapiens (Human), UniProt P03372)" value_measured="50 to 75%"
compound="O=C1CC[C@@H](Nc2ccc(C3CCN(C[C@H]4COC5(CCN(c6ccc([C@H]7c8ccc(O)cc8OC[C@H]7c7ccccc7)cc6)CC5)C4)CC3)c(F)c2)C(=O)N1 (single isomer, unassigned)" target_desc="ER (Homo sapiens (Human), UniProt P03372)" value_measured="25 to 50%"
compound="O=C1CCC(N2Cc3c(ccc4c3OC[C@@H]3CN(CC5CCN(c6ccc([C@@H]7c8ccc(O)cc8OC[C@@H]7c7ccccc7)cc6)CC5)CCN43)C2=O)C(=O)N1 (single isomer, unassigned)" target_desc="ER (Homo sapiens (Human), UniProt P03372)" value_measured="50 to 75%"
compound="COc1cc(N2CCC3(CC2)CC(CN2CCN4c5ccc6c(c5OC[C@@H]4C2)CN([C@@H]2CCC(=O)NC2=O)C6=O)C3)c(F)cc1[C@@H]1c2ccc(O)cc2OC[C@@H]1c1ccccc1 (single isomer, unassigned)" target_desc="ER (Homo sapiens (Human), UniProt P03372)" value_measured="≥ 75%"
compound="COc1cc(N2CCC(CN3CCN4c5cc6c(cc5OC[C@H]4C3)C(=O)N(C3CCC(=O)NC3=O)C6)CC2)ccc1[C@H]1c2ccc(O)cc2OC[C@H]1c1ccccc1 (stereo partly drawn)" target_desc="ER (Homo sapiens (Human), UniProt P03372)" value_measured="< 25%"
compound="O=C1CCC(NC(=O)c2ccc3c(n2)OC[C@H]2CN(CC4CCN(c5ccc([C@H]6c7ccc(O)cc7OC[C@H]6c6ccccc6)cc5F)CC4)CCN32)C(=O)N1 (stereo partly drawn)" target_desc="ER (Homo sapiens (Human), UniProt P03372)" value_measured="50 to 75%"
compound="O=C1CC[C@@H](Nc2ccc(C3CCN(C[C@@H]4COC5(CCN(c6ccc([C@H]7c8ccc(O)cc8OC[C@H]7c7ccccc7)cc6)CC5)C4)CC3)c(F)c2)C(=O)N1 (mixture of isomers)" target_desc="ER (Homo sapiens (Human), UniProt P03372)" value_measured="25 to 50%"
compound="O=C1CCC(Nc2ccc(N3CCN(CC4CC5(CCN(c6ccc([C@H]7c8ccc(O)cc8OC[C@H]7c7ccccc7)cc6)CC5)C4)CC3)c(F)c2)C(=O)N1 (single isomer, unassigned)" target_desc="ER (Homo sapiens (Human), UniProt P03372)" value_measured="25 to 50%"
compound="O=C1CCC(N2Cc3c(ccc4c3OC[C@H]3CN(CC5CCN(c6ccc([C@@H]7c8ccc(O)cc8OC[C@@H]7c7ccccc7)cc6F)CC5)CCN43)C2=O)C(=O)N1 (single isomer, unassigned)" target_desc="ER (Homo sapiens (Human), UniProt P03372)" value_measured="50 to 75%"
compound="O=C1CCC(NC(=O)c2ccc(N3CCN(CC4CCN(c5ccc([C@@H]6c7ccc(O)cc7OC[C@@H]6c6ccccc6)cc5)CC4)CC3)cn2)C(=O)N1 (single isomer, unassigned)" target_desc="ER (Homo sapiens (Human), UniProt P03372)" value_measured="50 to 75%"
compound="O=C1CCC(N2C(=O)c3cc4c(cc3C2=O)CN(CC(=O)N2CCC3(CC2)CN(c2ccc([C@@H]5c6ccc(O)cc6OC[C@@H]5c5ccccc5)cc2)C3)C4)C(=O)N1 (single isomer, unassigned)" target_desc="ER (Homo sapiens (Human), UniProt P03372)" value_measured="50 to 75%"
compound="O=C1CCC(N2C(=O)c3cc4c(cc3C2=O)CN(C(=O)C2CCN(C3CCN(c5ccc([C@@H]6c7ccc(O)cc7OC[C@@H]6c6ccccc6)cc5)CC3)CC2)C4)C(=O)N1 (single isomer, unassigned)" target_desc="ER (Homo sapiens (Human), UniProt P03372)" value_measured="≥ 75%"
compound="O=C1CCC(NC(=O)c2ccc3c(n2)OC[C@H]2CN(CC4CC5(CCN(c6ccc([C@@H]7c8ccc(O)cc8OC[C@@H]7c7ccccc7)cc6)CC5)C4)CCN32)C(=O)N1 (stereo partly drawn)" target_desc="ER (Homo sapiens (Human), UniProt P03372)" value_measured="50 to 75%"
compound="COc1nc(C(=O)NC2CCC(=O)NC2=O)ccc1N1CCN(CC2CCN(c3ccc([C@H]4c5ccc(O)cc5OC[C@H]4c4ccccc4)cc3F)CC2)CC1 (single isomer, unassigned)" target_desc="ER (Homo sapiens (Human), UniProt P03372)" value_measured="50 to 75%"
compound="COc1cc(N2CCC(CN3CCN4c5ccc6c(c5OC[C@@H]4C3)CN([C@@H]3CCC(=O)NC3=O)C6=O)CC2)c(F)cc1[C@@H]1c2ccc(O)cc2OC[C@@H]1c1ccccc1 (single isomer, unassigned)" target_desc="ER (Homo sapiens (Human), UniProt P03372)" value_measured="≥ 75%"
